# test.description: Pharmacokinetics in rats
# Format: in vivo
# measurement.parameters: male, Sprague-Dawley, rat, plasma, po, 10 mg/kg BEX, 0.5% CMC-Na suspension, mean ± SD
experimental.endpoint: Cmax (ng/mL)

C=C(c1ccc(C(=O)O)cc1)c1cc2c(cc1C)C(C)(C)CCC2(C)C : 1680

* * *

# test.description: Equilibrium solubility in buffer solutions with 0.05% CTAB
# Type: physicochemical
# measurement.parameters: buffer solution with 0.05% CTAB, aqueous with cosolvent or surfactant or cyclodextrin, thermodynamic from solid; pH 4.5 buffer, 0.05% CTAB, 37 °C, one day
experimental.endpoint: solubility thermodynamic at 1 day

C=C(c1ccc(C(=O)O)cc1)c1cc2c(cc1C)C(C)(C)CCC2(C)C [BEX, Bexarotene] : > 10 µg/mL

* * *

# test.description: Powder dissolution at pH 6.8 with 0.05% CTAB
# Assay type: physicochemical
# measurement.parameters: phosphate buffer with 0.05% CTAB, aqueous with cosolvent or surfactant or cyclodextrin, thermodynamic from solid; pH 6.8 phosphate buffer, 0.05% CTAB, 37 °C, 60 min; read-out: measured solubility in powder dissolution after 60 min
experimental.endpoint: solubility at 60 min

C=C(c1ccc(C(=O)O)cc1)c1cc2c(cc1C)C(C)(C)CCC2(C)C [BEX, Bexarotene] : ~30 µg/mL

* * *

# test.description: Equilibrium solubility in buffer solutions with 0.05% CTAB
# Assay type: physicochemical
# measurement.parameters: buffer solution with 0.05% CTAB, aqueous with cosolvent or surfactant or cyclodextrin, thermodynamic from solid; pH 2.0 buffer, 0.05% CTAB, 37 °C, one day
experimental.endpoint: solubility thermodynamic at 1 day

C=C(c1ccc(C(=O)O)cc1)c1cc2c(cc1C)C(C)(C)CCC2(C)C [BEX, Bexarotene] : < 10 µg/mL

* * *

# test.description: Pharmacokinetics in rats
# Format: in vivo
# measurement.parameters: male, Sprague-Dawley, rat, plasma, po, 10 mg/kg BEX, 0.5% CMC-Na suspension, mean ± SD, read-out: AUC0−8h
# Experimental: The PK studies were performed according to the Guide for Care and Use of Laboratory Animals and were approved by the Institutional Animal Care and Use Committee of Shanghai Institute of Materia Medica. […] The BEX concentration was measured by the SCIEX Triple Quad™ 4500 LC-MS instrument. […] Multiple reaction monitoring modes (MRM) was used to perform the detection and quantification, with m/z 347.3→303.0 for BEX. […]
experimental.endpoint: AUC(0-t) (ng·h/mL)

C=C(c1ccc(C(=O)O)cc1)c1cc2c(cc1C)C(C)(C)CCC2(C)C : 7220
